Molecular target: human glucagon receptor (human) (UniProt P47871)
Sequence (P47871 26-477): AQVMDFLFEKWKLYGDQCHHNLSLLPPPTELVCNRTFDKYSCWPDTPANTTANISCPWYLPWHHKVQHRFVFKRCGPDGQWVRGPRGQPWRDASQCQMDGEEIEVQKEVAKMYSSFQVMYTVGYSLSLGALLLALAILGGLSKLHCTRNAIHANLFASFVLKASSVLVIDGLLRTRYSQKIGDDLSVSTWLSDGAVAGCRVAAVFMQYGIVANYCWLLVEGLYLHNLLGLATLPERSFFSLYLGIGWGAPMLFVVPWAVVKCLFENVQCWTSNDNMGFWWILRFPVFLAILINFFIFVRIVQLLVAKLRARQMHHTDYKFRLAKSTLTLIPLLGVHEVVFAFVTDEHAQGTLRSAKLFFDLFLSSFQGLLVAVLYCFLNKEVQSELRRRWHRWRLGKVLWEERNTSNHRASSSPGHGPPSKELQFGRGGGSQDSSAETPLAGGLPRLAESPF
Experiment: cell-based or functional assay
Starred links: 1 amine or outer side, 2 acyl side, 3 side chain; linkers in the order of their positions; H or OH if unused. Non-standard residues stand in square brackets, D forms with d. Groups on a side chain read outwards from the residue. No end group written: not given here. *: point of attachment. C20 diacid = O=C(O)CCCCCCCCCCCCCCCCCCC(=O)*; γGlu = O=C(O)[C@H](CCC(=O)[*:2])N[*:1]; NMeY = CN[C@@H](Cc1ccc(O)cc1)C(=O)O; αMeF = C[C@](N)(Cc1ccccc1)C(=O)O; αMeL = CC(C)C[C@](C)(N)C(=O)O; AEEA = NCCOCCOCC(=O)O; Aib = CC(C)(N)C(=O)O
observable: Relative cAMP EC50
Give me the value, and tack the unit on after it.

// solved cases for Relative cAMP EC50 follow
{"binder": "YXQGTFTSDFSXXLDKKAQXAFIEYLLEAGPSSGAPPPSGT (Aib, Orn, αMeL, D-Ala; acylated lysine; amide; synthetic construct; SITE 2: note = 2-Aminoisobutyric Acid; SITE 12: note = L-ornithine; SITE 13: note = alpha-methyl-leucine; SITE 17: note = Lysine is chemically modified through conjugation of the epsilon-amino group of the Lysine side chain with (gamma-Glu)3-CO-(CH2)16-CO2H; SITE 20: note = 2-Am) [Example 205]", "resultValue": "8.98 nM"}
{"binder": "YXQGTFTSDFSRXLDKKAQXAFIEYLIEXGESSGAPPPSGS (C-terminal amide; lysine acylated with AEEA-γ-Glu-C18 diacid; synthetic construct; SITE 2: note = 2-Aminoisobutyric Acid; SITE 13: note = alpha-methyl-leucine; SITE 17: note = Lysine is chemically modified through conjugation of the epsilon-amino group of the Lysine side chain with (2-[2-(2-Amino-ethoxy)-ethoxy]-acetyl)-(gamma-Glu)-CO-(CH2) 16-CO2H; SITE 20: n) [Example 221]", "resultValue": "11.3 nM"}
{"binder": "YXQGTXTSDXXIXLDXKAQXXFIEXLAEGGPSSGEPPPSGTE (synthetic construct; SITE 2: note = 2-Aminoisobutyric Acid; SITE 6: note = alpha-methyl-2-fluoro-L-phenylalanine; SITE 10: note = 3-(4-Pyridyl)-L-alanine; SITE 11: note = alpha-methyl-L-serine; SITE 13: note = alpha-methyl-leucine; SITE 16: note = L-ornithine; SITE 17: note = Lysine is chemically mo) [Example 544]", "resultValue": "2.71 nM"}
{"binder": "[NMeY][Aib]QGT[αMeF]TSDYSILLDKQAAK([AEEA-AEEA-γGlu-C20 diacid])AFVQWLIEGGPSSGEPPPSEG-NH2 [Example 302]", "resultValue": "4.47 nM"}
{"binder": "YXQGTXTSDYXSXLDXKAQXXFIEXLLEGGPSSGEPPPE (synthetic construct; SITE 2: note = 2-Aminoisobutyric Acid; SITE 6: note = alpha-methyl-L-phenylalanine; SITE 11: note = alpha-methyl-L-serine; SITE 13: note = alpha-methyl-leucine; SITE 16: note = L-ornithine; SITE 17: note = Lysine is chemically modified through conjugation of the epsilon-amino gr) [Example 389]", "resultValue": "4.03 nM"}

For every record below, what is its Relative cAMP EC50?
1. YXQGTXTSDYXIXLDXKAQXXFIEXLEEGGPSSGEPPPEEG (synthetic construct; SITE 2: note = 2-Aminoisobutyric Acid; SITE 6: note = alpha-methyl-2-fluoro-L-phenylalanine; SITE 11: note = alpha-methyl-L-serine; SITE 13: note = alpha-methyl-leucine; SITE 16: note = L-ornithine; SITE 17: note = Lysine is chemically modified through conjugation of the epsilon) [Example 403]
2. YXQGTFTSDXXQXLDXKAQXQFIQXLIAGGPSSGEPPPSGGGE (not fully specified; non-natural residues; C18 diacid-γGlu-e on Lys; C-terminal amide; synthetic construct; SITE 2: note = 2-Aminoisobutyric Acid; SITE 10: note = 3-(4-Pyridyl)-L-alanine; SITE 11: note = alpha-methyl-L-serine; SITE 13: note = alpha-methyl-leucine; SITE 16: note = L-ornithine; SITE 17: note = Lysine is chemically modified through conjugation of the epsilon-amino group) [Example 1133]
3. YXQGTXTSDXXIXLDXKAQXXFIEXLTEGGPSSGEPPPEGTEE (acylated Lys (γGlu)2-C18 diacid; non-natural residues; C-terminal amide; synthetic construct; SITE 2: note = 2-Aminoisobutyric Acid; SITE 6: note = alpha-methyl-2-fluoro-L-phenylalanine; SITE 10: note = 3-(4-Pyridyl)-L-alanine; SITE 11: note = alpha-methyl-L-serine; SITE 13: note = alpha-methyl-leucine; SITE 16: note = L-ornithine; SITE 17: note = Lysine is chemically mo) [Example 597]
4. YXQGTXTSDYSILLDXKAQXAFIEYLLEGGPSSGAPPPS (synthetic construct; SITE 2: note = 2-Aminoisobutyric Acid; SITE 6: note = alpha-methyl-2-fluoro-L-phenylalanine; SITE 16: note = L-ornithine; SITE 17: note = Lysine is chemically modified through conjugation of the epsilon-amino group of the Lysine side chain with (gamma-Glu)2-CO-(CH2)16-CO2H; SITE) [Example 428]
5. YXQGTXTSDXXIXLDXKAQXXFIEYLIEGGPSSGEPPPSGTGE (not fully specified; C-terminal amide; synthetic construct; SITE 2: note = 2-Aminoisobutyric Acid; SITE 6: note = alpha-methyl-2-fluoro-L-phenylalanine; SITE 10: note = 3-(4-Pyridyl)-L-alanine; SITE 11: note = alpha-methyl-L-serine; SITE 13: note = alpha-methyl-leucine; SITE 16: note = L-ornithine; SITE 17: note = Lysine is chemically mo) [Example 524]
6. Y[Aib]QGTFTSDYSI[αMeL]LDKIAAK([AEEA-AEEA-γGlu-C20 diacid])QFVEWLLA[Aib]GPSSGEPPPSEG-NH2 [Example 324]
7. YXQGTXTSDXSILLDKKAQXAFIEYLEEGGPSSGAPPPSGSEE (Aib, αMeF(2F), 4Pal; lysine acylated C18 diacid; amide; synthetic construct; SITE 2: note = 2-Aminoisobutyric Acid; SITE 6: note = alpha-methyl-2-fluoro-L-phenylalanine; SITE 10: note = 3-(4-Pyridyl)-L-alanine; SITE 17: note = Lysine is chemically modified through conjugation of the epsilon-amino group of the Lysine side chain with (gamma-Glu)2-CO-(CH2)1) [Example 610]

Data returned:
1: 1.59 nM; 2: 2.95 nM; 3: 5.2 nM; 4: 2.35 nM; 5: 5.11 nM; 6: 5.74 nM; 7: 5.75 nM
